experiment: NCI Yeast Anticancer Drug Screen. Data for the bub3 strain (AID 167); settings: S. cerevisiae bub3 mutant strain, at 50.0 µM
About 79,000 compounds went through this panel and 15% of them were active in at least one assay; those are over-represented in the sample as a whole. The source made the active and inactive calls. No stated cut-off is given here; in the data, active means growth inhibition above about 70%; inactive means the rest.
In this exercise, the only acceptable responses are y for active, n for inactive

Each compound tested received a call. Report the one for CCC1SC(C)C(=O)NC1=O (configuration not stated) .
n

Each compound tested received a call. Report the one for "O=C1c2ccccc2C(=O)N1CCn1[nH]c(=O)c2ccccc2c1=O" .
n

Each compound tested received a call. Report the one for OC1c2ccccc2CCCC1N1CCCCC1 (configuration not stated) .
n

Each compound tested received a call. Report the one for COc1cc(C(C)O)c[n+](Cc2ccccc2)c1 (configuration not stated) .
n

Each compound tested received a call. Report the one for "Cc1cc(C)n(/N=C/c2ccco2)c(=O)c1C#N" .
n

Each compound tested received a call. Report the one for Nc1cccc(OCC2CCCN3CCCCC23)c1 (configuration not stated) .
n

Each compound tested received a call. Report the one for "Nc1cccc(CNC(=O)COc2ccc(Cl)c(Cl)c2)c1" .
y

Data provenance: PubChem BioAssay (NCI)
